system: Felis catus; test: Inhibition of isoproterenol-induced vasodepressor response in anesthetized cat compound administered as an infusion over a period of 30 mins; type: organism-based; details: in vivo, iv, 0.5 h; note: test concentration or dose not given here
readout.name: inhibition (INH) (%)
# value in %; strip the unit string

Give the measured inhibition (INH) of O=C(O)C(=O)O.OC(CNCCOc1ccccc1Cl)COc1ccccc1 (stereo unspecified) . 71

# lookup: inhibition (INH) of CCCc1ccccc1OCCNCC(O)COc1ccccc1.O=C(O)C(=O)O (stereo unspecified) 0

// returns reported inhibition (INH) for input CCOCCCNCC(O)COc1ccccc1[N+](=O)[O-].O=C(O)C(=O)O (stereo unspecified) 0

Quick one: inhibition (INH) of CCOCCCNCC(O)COc1ccccc1 (stereo unspecified) ? 0

Tell me the measured inhibition (INH) of COCCNCC(O)COc1ccccc1 (stereo unspecified) , please. 0

Item COCCNCC(O)COc1ccccc1C#N (stereo unspecified) has what recorded inhibition (INH)? 0

Which measured inhibition (INH) value corresponds to Cc1ccccc1OCC(O)CNCCOc1ccc(C(N)=O)cc1 (stereo unspecified) [TOLAMOLOL] ? 81

Sample O=C(O)C(=O)O.OC(CNCCOc1ccccc1)COc1ccccc1Cl (stereo unspecified) — what was its inhibition (INH)? 38

// lookup inhibition (INH) for Cc1ccc(OCCNCC(O)COc2ccccc2)cc1 (stereo unspecified) 0

Please give the measured inhibition (INH) for this molecule: Cc1cccc(OCC(O)CNCCOc2ccccc2)c1.Cl (stereo unspecified) 33

Find the recorded inhibition (INH) belonging to CCOCCNCC(O)COc1ccccc1 (stereo unspecified) and report it. 10

Give its inhibition (INH) value. Item: OC(CNCCOc1cccc(Cl)c1)COc1ccccc1 (stereo unspecified) 36

Please give the measured inhibition (INH) for this molecule: Cc1ccccc1OCCNCC(O)COc1ccccc1 (stereo unspecified) 0

Entry Cl.OC(CNCCCOc1ccccc1)COc1ccccc1 (stereo unspecified) : reported inhibition (INH) = ? 0

Recorded inhibition (INH) for COc1ccccc1OCCNCC(O)COc1ccccc1 (stereo unspecified) , please? 0

Reported inhibition (INH), molecule OC(CNCCOc1ccc(Cl)cc1)COc1ccccc1 (stereo unspecified) : ____ 0

Quick one: inhibition (INH) for OC(CNCCOc1ccccc1)COc1ccccc1 (stereo unspecified) ? 0

Query (molecule): Oc1ccc(OCC(O)CNCCOc2ccccc2)cc1 (stereo unspecified) ; field requested: inhibition (INH) 78

Item OC(CNCCOc1ccc(OCc2ccccc2)cc1)COc1ccccc1 (stereo unspecified) has what recorded inhibition (INH)? 0

Could you share which inhibition (INH) value was measured for Cc1cccc(Cl)c1OCCNCC(O)COc1ccccc1.O=C(O)C(=O)O (stereo unspecified) ? 79

// inhibition (INH) lookup, key: COCCNCC(O)COc1ccccc1[N+](=O)[O-] (stereo unspecified) 29

Fill blank: measured inhibition (INH) of the molecule Cc1ccccc1OCC(O)CNCCOc1ccccc1.Cl (stereo unspecified) is ____. 12

Could you share which inhibition (INH) value was measured for COc1ccccc1OCCCNCC(O)COc1ccccc1.O=C(O)C(=O)O (stereo unspecified) ? 15

Give its inhibition (INH) value. Item: COc1ccccc1OC(C)CNCC(O)COc1ccccc1.O=C(O)C(=O)O (stereo unspecified) 0

Given the entry COc1ccccc1OCCNCC(O)COc1ccccc1OC.O=C(O)C(=O)O (stereo unspecified) , report its measured inhibition (INH). 60

Give the measured inhibition (INH) of O=C(O)C(=O)O.OC(CNCCOc1c(Cl)cccc1Cl)COc1ccccc1 (stereo unspecified) . 11

Which inhibition (INH) is listed for COCCNCC(O)COc1ccc(O)cc1 (stereo unspecified) ? 0

Quick one: inhibition (INH) for Cc1cccc(OCCNCC(O)COc2ccccc2)c1.Cl (stereo unspecified) ? 29

Query: inhibition (INH); subject: OC(CNCCOc1ccc(F)cc1)COc1ccccc1 (stereo unspecified) 58

Given Cl.OC(CNCCOc1cccc2ccccc12)COc1ccccc1 (stereo unspecified) , state its recorded inhibition (INH). 0

I would be grateful if you could share the reported inhibition (INH) for C=CCc1ccccc1OCCNCC(O)COc1ccccc1.O=C(O)C(=O)O (stereo unspecified) . 33
